These compounds were tested on D(2) dopamine receptor (Homo sapiens, UniProt P14416); Ki is the recorded read-out.
Sequence (P14416 whole entry): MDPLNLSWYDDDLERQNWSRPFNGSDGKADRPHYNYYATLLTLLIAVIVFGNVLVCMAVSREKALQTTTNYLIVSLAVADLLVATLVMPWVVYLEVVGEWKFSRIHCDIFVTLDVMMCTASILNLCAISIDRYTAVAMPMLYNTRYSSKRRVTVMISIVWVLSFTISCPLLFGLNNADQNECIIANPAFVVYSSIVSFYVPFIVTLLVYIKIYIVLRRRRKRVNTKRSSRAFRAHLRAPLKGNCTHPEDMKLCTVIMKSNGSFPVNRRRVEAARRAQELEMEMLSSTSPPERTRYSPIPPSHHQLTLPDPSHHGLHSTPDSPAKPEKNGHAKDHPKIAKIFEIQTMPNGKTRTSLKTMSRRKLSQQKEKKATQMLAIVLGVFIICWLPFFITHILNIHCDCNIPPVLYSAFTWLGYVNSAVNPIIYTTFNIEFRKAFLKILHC
Counter-ions that a name gives are not always drawn.
assay_metric: Ki

INSERT INTO results (compound, subject_of_test, assay_metric, result) VALUES
  ('COc1ccc(C(CN(C)C)C2(O)CCCCC2)cc1 (stereo not drawn)', 'D(2) dopamine receptor (Homo sapiens, UniProt P14416)', 'Ki', '> 10 µM'),
  ('CN(C)CCCN1c2ccccc2CCc2ccc(Cl)cc21 [CLOMIPRAMINE HYDROCHLORIDE]', 'D(2) dopamine receptor (Homo sapiens, UniProt P14416)', 'Ki', '0.0776 µM'),
  ('COc1ccc2c(c1)C(CN(C)C)(C1(O)CCCCC1)C2 (stereo not drawn)', 'D(2) dopamine receptor (Homo sapiens, UniProt P14416)', 'Ki', '> 10 µM');

====

molecular target: Norepinephrine transporter (Rattus norvegicus)
pKi: −log10 of the molar value.
assay_metric: pKi

INSERT INTO results (molecule, recorded_number) VALUES
  ('COc1ccc2c(c1)C(CN(C)C)(C1(O)CCCCC1)C2 (stereo unspecified) [S33005]', 6.75);

====

Reported Ki values follow for various molecules
Target: 5-hydroxytryptamine receptor 1A (Homo sapiens)
Sequence (P08908 whole entry): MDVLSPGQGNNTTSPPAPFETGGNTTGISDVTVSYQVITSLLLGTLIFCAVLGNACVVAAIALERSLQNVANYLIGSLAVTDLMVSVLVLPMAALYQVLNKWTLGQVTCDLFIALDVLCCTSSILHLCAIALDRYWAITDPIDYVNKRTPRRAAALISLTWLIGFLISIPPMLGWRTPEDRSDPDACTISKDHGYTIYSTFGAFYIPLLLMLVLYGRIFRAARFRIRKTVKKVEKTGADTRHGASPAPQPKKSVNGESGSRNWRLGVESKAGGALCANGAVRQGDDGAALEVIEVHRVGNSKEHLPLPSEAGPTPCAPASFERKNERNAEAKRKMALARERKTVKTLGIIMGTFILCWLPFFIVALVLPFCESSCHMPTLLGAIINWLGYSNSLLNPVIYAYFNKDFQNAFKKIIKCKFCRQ
Structures can show the parent of a compound that is named as a salt.
assay_metric: Ki

INSERT INTO results (molecule, subject_of_test, assay_metric, result) VALUES
  ('COc1ccc2c(c1)C(CN(C)C)(C1(O)CCCCC1)C2 (stereo not drawn)', '5-hydroxytryptamine receptor 1A (Homo sapiens)', 'Ki', '> 10 µM'),
  ('COc1ccc(C(CN(C)C)C2(O)CCCCC2)cc1 (stereo not drawn)', '5-hydroxytryptamine receptor 1A (Homo sapiens)', 'Ki', '> 10 µM'),
  ('CN(C)CCCN1c2ccccc2CCc2ccc(Cl)cc21 [CLOMIPRAMINE HYDROCHLORIDE]', '5-hydroxytryptamine receptor 1A (Homo sapiens)', 'Ki', '> 10 µM');

====

Reported Ki by item:
target: Alpha-2C adrenergic receptor (Rattus norvegicus)
Sequence (P22086 whole entry): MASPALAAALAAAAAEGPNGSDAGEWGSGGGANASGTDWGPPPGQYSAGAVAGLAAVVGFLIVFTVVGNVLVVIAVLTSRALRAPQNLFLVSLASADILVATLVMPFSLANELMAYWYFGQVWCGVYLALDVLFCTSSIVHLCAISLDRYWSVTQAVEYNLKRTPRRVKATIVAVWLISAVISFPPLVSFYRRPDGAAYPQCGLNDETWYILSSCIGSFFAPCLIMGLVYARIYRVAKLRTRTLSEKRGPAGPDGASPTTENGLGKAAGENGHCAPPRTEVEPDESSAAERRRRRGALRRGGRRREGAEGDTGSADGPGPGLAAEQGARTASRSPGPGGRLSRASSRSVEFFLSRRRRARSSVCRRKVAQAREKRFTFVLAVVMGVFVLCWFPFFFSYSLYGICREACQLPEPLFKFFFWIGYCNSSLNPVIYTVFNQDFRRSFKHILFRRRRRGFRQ
Where a name gives a salt, the structure may show the parent alone.
assay_metric: Ki

INSERT INTO results (molecule, assay_metric, result) VALUES
  ('CN(C)CCCN1c2ccccc2CCc2ccc(Cl)cc21 [CLOMIPRAMINE HYDROCHLORIDE]', 'Ki', '> 10 µM'),
  ('COc1ccc2c(c1)C(CN(C)C)(C1(O)CCCCC1)C2 (stereo not drawn)', 'Ki', '> 10 µM'),
  ('COc1ccc(C(CN(C)C)C2(O)CCCCC2)cc1 (stereo not drawn)', 'Ki', '> 10 µM');
